tgt: VEGFR/KDR (Homo sapiens, UniProt P35968)
Sequence (P35968 806-1356): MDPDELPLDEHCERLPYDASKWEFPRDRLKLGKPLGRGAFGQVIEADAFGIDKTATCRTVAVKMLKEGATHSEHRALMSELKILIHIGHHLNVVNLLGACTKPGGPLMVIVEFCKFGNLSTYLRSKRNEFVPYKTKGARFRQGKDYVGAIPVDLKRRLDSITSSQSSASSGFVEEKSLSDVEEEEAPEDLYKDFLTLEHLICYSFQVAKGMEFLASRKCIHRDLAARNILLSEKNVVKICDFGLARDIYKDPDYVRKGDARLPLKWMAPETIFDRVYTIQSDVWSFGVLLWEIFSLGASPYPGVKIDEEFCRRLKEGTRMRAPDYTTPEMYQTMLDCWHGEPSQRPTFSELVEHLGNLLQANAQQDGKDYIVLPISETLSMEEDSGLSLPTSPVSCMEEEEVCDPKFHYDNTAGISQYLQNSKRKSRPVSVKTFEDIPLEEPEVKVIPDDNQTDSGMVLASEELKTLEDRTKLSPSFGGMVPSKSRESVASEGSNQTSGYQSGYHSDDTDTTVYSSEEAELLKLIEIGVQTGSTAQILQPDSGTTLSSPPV
measurement_description: VEGFR/KDR kinase inhibition, DELFIA assay
assay_context: ATP 0.6 uM (2x Km), enzyme 5 nM
pIC50: −log10 of the molar value.
Entries and their measured pIC50 follow.

O=C(Nc1ccc(Oc2ccnc3cc(-c4ccc(CN5CCN(CCc6nnn[nH]6)CC5)cn4)sc23)c(F)c1)NC1CC1    > 7.30
CC(C)[C@H](N)C(=O)OCCN1CCN(Cc2ccc(-c3cc4nccc(Oc5ccc(NC(=O)NC6CC6)cc5F)c4s3)nc2)CC1    > 7.30
O=C(Nc1ccc(Oc2ccnc3cc(C(=O)N4CCC4)sc23)c(F)c1)NC1CC1    > 7.30

From here, focus on the item given below.
**Query** Item under review: CCNC(=O)N(CCOCCOCCOCCOC)Cc1ccc(-c2cc3nccc(Oc4ccc(NC(=O)NC5CC5)cc4F)c3s2)nc1 . Reported pIC50?
**Result** > 7.30

====

Entries and their measured pIC50 follow.
tgt: VEGFR/KDR (Homo sapiens)
measurement_description: VEGFR/KDR kinase inhibition, DELFIA assay
assay_context: ATP 0.6 uM (2x Km), enzyme 5 nM
pIC50: −log10 of the molar value.

Below: 3 molecules and their reported pIC50.
O=C(Nc1ccc(Oc2ccnc3cc(-c4ccc(CN5CCC(C(=O)O)CC5)cn4)sc23)c(F)c1)NC1CC1 [Compound 62]    > 7.30
COCCNCc1ccc(-c2cc3nccc(Oc4ccc(NC(=O)NC5CC5)cc4F)c3s2)cc1 [Compound 113]    > 7.30
O=C(Nc1ccc(Oc2ccnc3cc(-c4ccc(CN5CCN(C(=O)[C@@H](O)CO)CC5)cn4)sc23)c(F)c1)NC1CC1 [Compound 536]    > 7.30

**Query** Item under review: CCNC(=O)N(C)C1CCN(Cc2ccc(-c3cc4nccc(Oc5ccc(NC(=O)NC6CC6)cc5F)c4s3)nc2)CC1 [Compound 407] . Reported pIC50?
**Result** > 7.30

====

tgt: VEGFR/KDR (Homo sapiens)
measurement_description: VEGFR/KDR kinase inhibition, DELFIA assay
assay_context: ATP 0.6 uM (2x Km), enzyme 5 nM
pIC50: −log10 of the molar value.
quantity: pIC50

CN1CCN(CCNC(=O)c2cc3nccc(Oc4ccc(NC(=O)NC5CC5)cc4F)c3s2)CC1    ≤ 6.60
O=C(Nc1ccc(Oc2ccnc3cc(-c4cn(CC(=O)N5CCOCC5)nn4)sc23)c(F)c1)NC1CC1    > 7.30
O=C(O)CCNC(=O)NC1CCN(Cc2ccc(-c3cc4nccc(Oc5ccc(NC(=O)NC6CC6)cc5F)c4s3)nc2)CC1    ≤ 6.60
O=C(Nc1ccc(Oc2ccnc3cc(-c4ccc(CN5CCN(C(=O)CCO)CC5)cn4)sc23)c(F)c1)NC1CC1    > 7.30

**Query** Record lookup: for VEGFR/KDR (Homo sapiens), what pIC50 belongs to O=C(Nc1ccc(Oc2ccnc3cc(-c4ccc(CN5CC[C@H](O)C5=O)cn4)sc23)c(F)c1)NC1CC1 ?
**Result** > 7.30

**Query** Record lookup: for VEGFR/KDR (Homo sapiens), what pIC50 belongs to COCCNCc1ccc(-c2cc3nccc(Oc4ccc(NC(=O)NC5CC5)nc4)c3s2)nc1 ?
**Result** 6.60 to 7.00

**Query** Record lookup: for VEGFR/KDR (Homo sapiens), what pIC50 belongs to O=C(O)CCN1CCN(Cc2ccc(-c3cc4nccc(Oc5ccc(NC(=O)NC6CC6)cc5F)c4s3)nc2)CC1 ?
**Result** > 7.30

**Query** Record lookup: for VEGFR/KDR (Homo sapiens), what pIC50 belongs to CCNC(=O)N(CCOC)CCn1cc(-c2cc3nccc(Oc4ccc(NC(=O)NC5CC5)cc4F)c3s2)cn1 ?
**Result** 7.00 to 7.30

**Query** Record lookup: for VEGFR/KDR (Homo sapiens), what pIC50 belongs to Cc1cc(NCc2ccc(-c3cc4nccc(Oc5ccc(NC(=O)NC6CC6)cc5F)c4s3)nc2)n[nH]1 ?
**Result** > 7.30

**Query** Record lookup: for VEGFR/KDR (Homo sapiens), what pIC50 belongs to CN1CCN(C(=O)Cn2cc(-c3cc4nccc(Oc5ccc(NC(=O)NC6CC6)cc5F)c4s3)nn2)CC1 ?
**Result** > 7.30

**Query** Record lookup: for VEGFR/KDR (Homo sapiens), what pIC50 belongs to CC(C)(C)C(=O)OC1CCN(C(=O)c2cc3nccc(Oc4ccc(NC(=O)NC5CC5)cc4F)c3s2)CC1 ?
**Result** 6.60 to 7.00

**Query** Record lookup: for VEGFR/KDR (Homo sapiens), what pIC50 belongs to O=C(Nc1ccc(Oc2ccnc3cc(-c4ccc(CN5CC(O)CC5=O)cn4)sc23)c(F)c1)NC1CC1 (racemic) ?
**Result** > 7.30

**Query** Record lookup: for VEGFR/KDR (Homo sapiens), what pIC50 belongs to C[C@@H]1CN(Cc2ccc(-c3cc4nccc(Oc5ccc(NC(=O)NC6CC6)cc5F)c4s3)nc2)C[C@H](C)N1C(=O)CO ?
**Result** > 7.30

**Query** Record lookup: for VEGFR/KDR (Homo sapiens), what pIC50 belongs to C[C@@H]1CN(Cc2ccc(-c3cc4nccc(Oc5ccc(NC(=O)NC6CC6)cc5F)c4s3)nc2)C[C@H](C)N1 ?
**Result** > 7.30

====

tgt: VEGFR/KDR (Homo sapiens, UniProt P35968)
measurement_description: VEGFR/KDR kinase inhibition, DELFIA assay
assay_context: ATP 0.6 uM (2x Km), enzyme 5 nM
pIC50: −log10 of the molar value.
quantity: pIC50

**Query** Item under review: CN(C)CCNC(=O)C1CCN(C(=O)c2cc3nccc(Oc4ccc(NC(=O)NC5CC5)cc4F)c3s2)CC1 . Reported pIC50?
**Result** 7.00 to 7.30

**Query** Item under review: COC(=O)C1CCN(Cc2ccc(-c3cc4nccc(Oc5ccc(NC(=O)NC6CC6)cc5F)c4s3)nc2)C1 (stereo not shown) . Reported pIC50?
**Result** > 7.30

**Query** Item under review: CC(C)(C)OC(=O)NCC(=O)N1CCN(C(=O)Cn2cc(-c3cc4nccc(Oc5ccc(NC(=O)NC6CC6)cc5F)c4s3)nn2)CC1 . Reported pIC50?
**Result** > 7.30

**Query** Item under review: O=C(Nc1ccc(Oc2ccnc3cc(C4=CCNCC4)sc23)c(F)c1)NC1CC1 . Reported pIC50?
**Result** 7.00 to 7.30

**Query** Item under review: O=C(O)CCCCCN1CCN(Cc2ccc(-c3cc4nccc(Oc5ccc(NC(=O)NC6CC6)cc5F)c4s3)nc2)CC1 . Reported pIC50?
**Result** > 7.30

====

Entries and their measured IC50 follow.
tgt: VEGFR/KDR (Homo sapiens)
measurement_description: VEGFR/KDR kinase inhibition, DELFIA assay
assay_context: ATP 0.6 uM (2x Km), enzyme 5 nM

Below: 4 compounds and their reported IC50.
O=C(O)CCN1CCN(Cc2ccc(-c3cc4nccc(Oc5ccc(NC(=O)NC6CC6)c(F)c5F)c4s3)nc2)CC1 [Compound 172]    < 50 nM
CCOC(=O)C1CCCN(C(=O)c2cc3nccc(Oc4ccc(NC(=O)NC5CC5)cc4F)c3s2)C1 (stereo not shown) [Compound 458]    50 to 100 nM
CN1CCC(CN2CCN(Cc3ccc(-c4cc5nccc(Oc6ccc(NC(=O)NC7CC7)cc6F)c5s4)nc3)CC2)CC1 [Compound 54-D]    < 50 nM
CC(C)NC(=O)Nc1ccc(Oc2ccnc3cc(-c4ncc(C(=O)N5CCCC5)n4C)sc23)c(F)c1 [Compound 223]    100 to 250 nM

From here, focus on the item given below.
**Query** Item under review: O=C(Nc1ccc(Oc2ccnc3cc(-c4cnn(CCOC(=O)NC5CC5)c4)sc23)c(F)c1)NC1CC1 [Compound 157] . Reported IC50?
**Result** < 50 nM

====

tgt: VEGFR/KDR (Homo sapiens, UniProt P35968)
measurement_description: VEGFR/KDR kinase inhibition, DELFIA assay
assay_context: ATP 0.6 uM (2x Km), enzyme 5 nM
Where a name gives a salt, the structure may show the parent alone.
quantity: IC50

Below: 6 molecules and their reported IC50.
COCCOCCOCCOCCNC(=O)c1ccc(-c2cc3nccc(Oc4ccc(NC(=O)NC5CC5)cc4F)c3s2)nc1    < 50 nM
CC(=O)OCC(=O)N(C)C1CCN(Cc2ccc(-c3cc4nccc(Oc5ccc(NC(=O)NC6CC6)cc5F)c4s3)nc2)CC1    < 50 nM
O=C(Nc1ccc(Oc2ccnc3cc(-c4ccc(CN5CCNCC5=O)cn4)sc23)c(F)c1)NC1CC1    < 50 nM
CC(C)N(CCN1CCN(C(=O)c2ccc(-c3cc4nccc(Oc5ccc(NC(=O)NC6CC6)cc5F)c4s3)nc2)CC1)C(C)C    < 50 nM
O=C(Nc1ccccc1)Nc1ccc(Oc2ccnc3cc(C#CCN4CCOCC4)sc23)c(F)c1    100 to 250 nM
CN1CCN(CCNC(=O)c2ccc(-c3cc4nccc(Oc5ccc(NC(=O)NC6CC6)cc5F)c4s3)nc2)CC1 [Compound 233, formate salt]    < 50 nM

From here, focus on the item given below.
**Query** Record lookup: for VEGFR/KDR (Homo sapiens, UniProt P35968), what IC50 belongs to CCNC(=O)N1CCN(Cc2ccc(-c3cc4nccc(Oc5ccc(NC(=O)NC6CC6)cc5F)c4s3)nc2)C[C@@H]1C ?
**Result** < 50 nM
